Data origin: patent US20210386729A1

ASSAY_METHOD_TEXT: Multiple oral dose plasma pharmacokinetics in healthy subjects
Type: in vivo, human
MEASUREMENT_SETUP: human, plasma, oral, 100 ug, healthy subjects, 100 μg qd, Day 13, plasma; mean; read-out: AUCtau
ENDPOINT_LABEL: AUC (ng·h/mL)
Answers are plain numbers, in ng·h/mL.

Q: Write down AUC measured for item O=C(O)c1cc(F)c2nc(N3C4CC[C@H]3CC(OCc3c(-c5ccccc5OC(F)(F)F)noc3C3CC3)C4)sc2c1 (stereo partly shown) [Compound A]
Result: 50.2

* * *

ASSAY_METHOD_TEXT: Multiple oral dose plasma pharmacokinetics in healthy subjects
Format: in vivo, human
MEASUREMENT_SETUP: human, plasma, oral, 10 μg, average Cmax at day 13 for a dose level of 10 μg, exposures for the doses 10-100 μg normalized to 10 μg
ENDPOINT_LABEL: Cmax (ng/mL)
One number for each entry, in ng/mL.

Q: Write down Cmax measured for item O=C(O)c1cc(F)c2nc(N3C4CC[C@H]3CC(OCc3c(-c5ccccc5OC(F)(F)F)noc3C3CC3)C4)sc2c1 (stereo partly shown) [Compound A]
Result: 0.32
